EC50 overview
- TESTED_SYSTEM: human mGlu4 receptor (Homo sapiens, UniProt Q14833)
- Construct: expressed in transfected cells; host or cells: HEK-293 (monoclonal, stably transfected)
- Sequence (Q14833 33-912): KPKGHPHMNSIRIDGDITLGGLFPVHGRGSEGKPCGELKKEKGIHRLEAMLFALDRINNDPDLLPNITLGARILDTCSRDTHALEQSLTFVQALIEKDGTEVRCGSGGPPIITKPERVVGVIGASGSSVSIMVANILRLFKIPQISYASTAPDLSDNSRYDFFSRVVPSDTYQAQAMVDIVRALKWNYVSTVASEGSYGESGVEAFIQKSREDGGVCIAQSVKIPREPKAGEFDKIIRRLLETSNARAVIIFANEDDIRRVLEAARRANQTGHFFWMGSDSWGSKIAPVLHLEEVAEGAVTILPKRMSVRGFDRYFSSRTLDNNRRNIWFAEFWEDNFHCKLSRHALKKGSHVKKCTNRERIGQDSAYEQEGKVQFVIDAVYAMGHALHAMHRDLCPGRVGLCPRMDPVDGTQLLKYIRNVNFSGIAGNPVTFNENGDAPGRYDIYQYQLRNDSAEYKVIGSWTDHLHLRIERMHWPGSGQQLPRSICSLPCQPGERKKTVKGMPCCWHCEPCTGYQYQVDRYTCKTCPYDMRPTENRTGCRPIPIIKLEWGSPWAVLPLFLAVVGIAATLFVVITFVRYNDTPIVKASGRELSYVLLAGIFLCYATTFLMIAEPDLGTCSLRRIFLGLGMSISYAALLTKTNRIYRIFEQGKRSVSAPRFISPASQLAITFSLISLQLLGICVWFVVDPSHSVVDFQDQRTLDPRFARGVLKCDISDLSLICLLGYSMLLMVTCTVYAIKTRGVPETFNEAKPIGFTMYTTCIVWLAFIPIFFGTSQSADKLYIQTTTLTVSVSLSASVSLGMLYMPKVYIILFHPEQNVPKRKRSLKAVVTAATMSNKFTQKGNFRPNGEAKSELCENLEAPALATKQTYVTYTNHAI
- ASSAY_PROCEDURE: Ca2+ mobilization in vitro assay on recombinant human mGlu4 expressed in HEK293 cells
- Type: cell-based
- CONDITIONS: HEK-293 cells stably expressing human mGlu4; L-AP4 added at EC20; Fluo-4 fluorescence; read-out: EC50 (uM) mGlu4 PAM
QUANTITY_NAME: EC50 (µM)

COMPOUND	MEASURED_NUMBER
Cn1nccc1-c1cnc2n1C1(CC1)C(=O)N2c1c(F)cc(C#Cc2ccccc2)cc1F	0.422
CC1C(=O)N(c2c(F)cc(C#Cc3ccccc3)cc2F)c2nccn21 (single isomer, unassigned; enantiomer 1) [Example 3]	0.453
O=C1N(c2c(F)cc(C#Cc3ccccc3)cc2F)c2ncc(-c3ccncn3)n2C12CC2	0.361
O=C1N(c2c(F)cc(C#Cc3ccccc3)cc2F)c2ncc(-c3ccccc3)n2C12CC2	0.073
